test system: MOLM14; test: cell viability relative to vehicle control; higher = less cytotoxic; settings: 10 µM; SRSF2 genotype: SRSF2 wt/wt;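 note: after 48 h exposure read by CellTiter-Glo luminescence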
Structures can show the parent of a compound that is named as a salt.
Catalogue of cell viability readings, one per entry.
Report the value in % with no unit label.

{"molecule": "Nc1ncccc1-c1nc2ccc(-c3ccccc3)nc2n1-c1ccc(C2(N)CCC2)cc1 [Miransertib (ARQ 092)HCl]", "target": "MOLM14", "cell viability / %": 48.1}

Task: Which cell viability value is on record for CN(CC(=O)N(Cc1ccc(C2CCCCC2)cc1)c1ccc(C(=O)O)cc1)S(=O)(=O)c1c(F)c(F)c(F)c(F)c1F ?
Output: 0.15

Task: cell viability for C[C@@H]1CC[C@@]2(OC1)O[C@H]1C[C@H]3[C@@H]4CC=C5C[C@@H](O[C@@H]6O[C@H](CO)[C@@H](O)[C@H](O[C@@H]7O[C@H](CO)[C@@H](O)[C@H](O)[C@H]7O)[C@H]6O[C@@H]6O[C@@H](C)[C@H](O)[C@@H](O)[C@H]6O)CC[C@]5(C)[C@H]4CC[C@]3(C)[C@H]1[C@@H]2C ?
Output: 0.55

Task: Using the record for C[Si](C)(C)CCOCn1ccc2c(-c3cn[nH]c3)ncnc21 , report its cell viability.
Output: 106

Task: If you can, please state the reported cell viability value of C[C@H](C[C@H](O)[C@H]1OC1(C)C)C1=C2C[C@H](O)[C@H]3[C@@]4(C)CCC(=O)C(C)(C)[C@@H]4CC[C@]3(C)[C@@]2(C)CC1 .
Output: 87.4

Task: Look at this molecule and give its reported cell viability. Cc1cc(Nc2cc(N)ncn2)c(=O)n2c1C(=O)NC21CCCCC1
Output: 92

Task: If you can, please state the reported cell viability value of O=c1ccoc2cc(O)ccc12 [7-Hydroxy-4-chromone] .
Output: 104

Task: Return reported cell viability; argument: Cc1ncc([N+](=O)[O-])n1CCO
Output: 103

Task: I have this molecule here, CC(C)C(C(=O)O)N1C(=O)C(=Cc2ccc(Br)cc2)SC1=S (stereo not drawn) , and I need its recorded cell viability.
Output: 100

Task: Can you share its cell viability? I mean this molecule: CC(NC(=O)C(O)c1cc(F)cc(F)c1)C(=O)NC1C(=O)N(C)c2ccccc2-c2ccccc21 (stereo not drawn)
Output: 105

Task: Can you share its cell viability? I mean this molecule: CN(C)C(=O)CCSC(SCCC(=O)O)c1cccc(/C=C/c2ccc3ccc(Cl)cc3n2)c1 (stereo not drawn)
Output: 107

Task: For O=C(O[C@@H]1O[C@@H]2COC(=O)c3cc(O)c(O)c(O)c3-c3c(cc(O)c(O)c3O)C(=O)O[C@H]([C@H]1O)[C@@H]2O)c1cc(O)c(O)c(O)c1 , what is its reported cell viability?
Output: 82.2

Task: Given the entry O=C1C(=Cc2ccncc2)CCCC1=Cc1ccncc1 , report its measured cell viability.
Output: 0.31

Task: # cell viability lookup, item COc1cc([C@@H]2Oc3cc([C@H]4Oc5cc(O)cc(O)c5C(=O)[C@@H]4O)ccc3O[C@H]2CO)ccc1O [Silymarin (Silybin B)]
Output: 102

Task: Could you tell me which cell viability is on file for OC[C@@H](O)[C@@H](O)[C@H](O)[C@H](O)CO ?
Output: 109

Task: Look at this molecule and give its reported cell viability. CCCCCCCCCCC[C@@H](C[C@@H]1OC(=O)[C@H]1CCCCCC)OC(=O)[C@H](CC(C)C)NC=O
Output: 73.4

Task: Endpoint output: cell viability of Nc1nc(-c2ccco2)c2cnn(Cc3ccccc3F)c2n1 . Value?
Output: 98.6

----------
Measured cell viability by item
test system: OCI-AML2; assay: cell viability relative to vehicle control; higher = less cytotoxic; details: 10 µM; SRSF2 genotype: wt/wt
Please respond with the number in % and leave the unit unwritten.

Use these answered entries as a reference point.
{"compound": "O=S1(=O)CCN(CN2CCS(=O)(=O)NC2)CN1", "cell viability (%)": 97.5}
{"compound": "CC(C)=CCC[C@](C)(O[C@@H]1O[C@H](CO)[C@@H](O)[C@H](O)[C@H]1O)[C@H]1CC[C@]2(C)[C@@H]1[C@H](O)C[C@@H]1[C@@]3(C)CC[C@H](O)C(C)(C)[C@@H]3[C@@H](O[C@@H]3O[C@H](CO)[C@@H](O)[C@H](O)[C@H]3O[C@@H]3OC[C@@H](O)[C@H](O)[C@H]3O)C[C@]12C [Notoginsenoside R1]", "cell viability (%)": 96.7}
{"compound": "C[C@H]1COC2(CCN(c3nc(=O)c4cc(C(F)(F)F)cc([N+](=O)[O-])c4s3)CC2)O1 (racemic) [BTZ043 racemate]", "cell viability (%)": 86.9}

Task: Give recorded cell viability with OCI-AML2 for the following compound: CN(CCN1CCC(OC(=O)Nc2ccccc2-c2ccccc2)CC1)C(=O)c1ccc(CN2CCC(C(N)=O)CC2)cc1
Output: 83.5

Task: OCI-AML2 / cell viability / NC(=S)c1ccncc1 [Thioisonicotinamide] : value?
Output: 110

Task: Requested read-out cell viability, target or system OCI-AML2, entry NC(N)=Nc1nc(CSCC/C(N)=N/S(N)(=O)=O)cs1
Output: 107

----------
Collected cell viability values appear next to each entry.
test system: MARIMO; assay: cell viability relative to vehicle control; higher = less cytotoxic; conditions: 10 µM; SRSF2 genotype: SRSF2 wt/wt
Kindly provide the numeric value in % only, without the unit symbol.

Sample records with cell viability:
{"compound": "CO[C@@H]1[C@H](OC(=O)/C=C/C=C/C=C/C=C/C(=O)O)CC[C@]2(CO2)[C@H]1[C@@]1(C)O[C@@H]1CC=C(C)C", "target": "MARIMO", "reported-property": "cell viability", "measured-value": 69.4}
{"compound": "CC1(C)S[C@@H]2[C@H](NC(=O)[C@H](C(=O)O)c3ccsc3)C(=O)N2[C@H]1C(=O)O [Ticarcillin sodium]", "target": "MARIMO", "reported-property": "cell viability", "measured-value": 95.7}
{"compound": "O=C1NC(=O)[C@@H](c2cn3c4c(cccc24)CCC3)[C@@H]1c1c[nH]c2ccccc12 [ARQ 197 (Tivantinib)]", "target": "MARIMO", "reported-property": "cell viability", "measured-value": 9.91}

Task: May I ask what cell viability has been recorded for O=C1NC(=O)/C(=C/c2ccc3c(c2)OC(F)(F)O3)S1 ?
Output: 99.8

----------
test system: MARIMO; assay: cell viability relative to vehicle control; higher = less cytotoxic; conditions: 10 µM; SRSF2 genotype: SRSF2 wt/wt
Counter-ions that a name gives are not always drawn.
reported-property: cell viability (%)
Your answer is read as %, so omit the unit and give the number.

Reference set, count: 2
{"molecule": "NC(=O)c1ccc(-c2nc(-c3ccccn3)c(-c3ccc4c(c3)OCO4)[nH]2)cc1", "unit-name": "%", "cell viability": 106}
{"molecule": "CCCCCCCCCCCCCCCC(=O)OCC [Ethyl palmitate]", "unit-name": "%", "cell viability": 106}

Task: // returns reported cell viability for input COc1cc2nc(N3CCN(C(=O)C4CCCO4)CC3)nc(N)c2cc1OC (stereo not drawn) [Terazosin HCl Dihydrate]
Output: 105

Task: Item C=CS(=O)(=O)NC1CCN(C(=O)CNc2cc(I)c(Cl)cc2OC)CC1 [K-Ras(G12C) inhibitor 9] has what recorded cell viability?
Output: 81.1

Task: What value of measured cell viability is listed for O=C(Nc1ccccc1-c1cn2c(CN3CCNCC3)csc2n1)c1cnc2ccccc2n1 ?
Output: 0.26

----------
test system: MARIMO; test: cell viability relative to vehicle control; higher = less cytotoxic; conditions: 10 µM; SRSF2 genotype: SRSF2 P95H/wt
Structures can show the parent of a compound that is named as a salt.
Documented cell viability across a set of compounds
Give just the number in %; leave the unit off.

# example entries with known answers
{"compound": "O=C(NCc1ccccc1)c1csc(Nc2ccncn2)n1 [Thiazovivin]", "target": "MARIMO", "cell viability (%)": 80.5}
{"compound": "Cc1ccc(C=O)o1 [5-Methyl furfural]", "target": "MARIMO", "cell viability (%)": 99.8}
{"compound": "CC(C)(C)OC(=O)Nc1ccc(-c2cc(C(=O)NCCCCCCC(=O)NO)no2)cc1", "target": "MARIMO", "cell viability (%)": 9.27}
{"compound": "Nc1ccc2ncnc(NCCc3ccc(Oc4ccccc4)cc3)c2c1", "target": "MARIMO", "cell viability (%)": 62.7}
{"compound": "CCCCNc1ncc(C(=O)NCc2ccc(-n3ccnc3)cc2)c(NC2CCC(O)CC2)n1 (stereo not given)", "target": "MARIMO", "cell viability (%)": 73}

Task: Reported cell viability for CCCCCCCCCCCCCC(=S)NCCCC[C@H](NC(=O)OCc1ccccc1)C(=O)Nc1ccccc1 [Thiomyristoyl] : what is it?
Output: 81.4

Task: Can you look up the measured cell viability of O=C(CCN1CCN(C(=O)OCc2cc(Cl)cc(Cl)c2)CC1)c1ccc2[nH]c(=O)oc2c1 for me?
Output: 87.2

Task: Please give the measured cell viability for this compound: CN[C@H]1CN(c2ccc3c(=O)c(C(=O)O)cn(-c4nccs4)c3n2)C[C@@H]1OC [Voreloxin (SNS-595) hydrochloride]
Output: 20.8

Task: Item under review: CCCCNc1ncc(-c2ccc(CN3CCOCC3)cn2)c(NC2CCC(O)CC2)n1 (stereo not given) . Reported cell viability?
Output: 60.7

Task: Can you share its cell viability? I mean this compound: CN1CCN(Cc2ccc(NC(=O)Nc3ccc(Oc4cc(NC(=O)C5CC5)ncn4)cc3)cc2C(F)(F)F)CC1
Output: 1.8

Task: Could you share which cell viability value was measured for CC(C)=CCC[C@](C)(O[C@@H]1O[C@H](CO)[C@@H](O)[C@H](O)[C@H]1O)[C@H]1CC[C@]2(C)[C@@H]1[C@H](O)C[C@@H]1[C@@]3(C)CC[C@H](O)C(C)(C)[C@@H]3[C@@H](O[C@@H]3O[C@H](CO)[C@@H](O)[C@H](O)[C@H]3O[C@@H]3OC[C@@H](O)[C@H](O)[C@H]3O)C[C@]12C [Notoginsenoside R1] ?
Output: 106

Task: Value lookup for cell viability; key = OB1OCc2cc(F)ccc21 [Tavaborole (AN-2690)]
Output: 85.4

Task: Quick check: cell viability of COc1ccc2cc1Oc1ccc(cc1)C[C@H]1c3c(cc4c(c3Oc3cc5c(cc3OC)CCN(C)[C@@H]5C2)OCO4)CCN1C [Cepharanthine] ?
Output: 57.9

Task: Could you tell me which cell viability is on file for CC1OC(OC2C(OC3CCC4(C)C(CCC5(C)C4CC=C4C6CC(C)(C)CCC6(C(=O)OC6OC(COC7OC(CO)C(O)C(O)C7O)C(O)C(O)C6O)CCC45C)C3(C)CO)OCC(O)C2O)C(O)C(OC2OC(CO)C(O)C(O)C2O)C1O (stereo not given) [Macranthoidin A] ?
Output: 100

Task: If you can, please state the reported cell viability value of O=c1cc(-c2ccc(O)cc2)oc2c([C@@H]3OC[C@H](O)[C@H](O)[C@H]3O)c(O)c([C@@H]3O[C@H](CO)[C@@H](O)[C@H](O)[C@H]3O)c(O)c12 [Schaftoside] .
Output: 108

Task: Suppose we examine the compound C=C1C(=O)O[C@H]2[C@H]1CC/C(C)=C/CC[C@@]1(C)O[C@@H]21 [Parthenolide ((-)-Parthenolide)] ; what cell viability value has been reported?
Output: 8.78

Task: Entry O=C(C1CCCCC1)N1CC(=O)N2CCc3ccccc3C2C1 (stereo not given) [Praziquantel (Biltricide)] : reported cell viability = ?
Output: 109

Task: If you can, please state the reported cell viability value of CCOc1cn(-c2ccc(F)cc2C)nc1C(=O)Nc1ccc(Oc2ccnc3cc(OC)c(OC)cc23)c(F)c1 .
Output: 89.3

Task: Record request: cell viability value, item CN(C)CCc1c[nH]c2ccc(Cn3cncn3)cc12 [Rizatriptan Benzoate (Maxalt)]
Output: 76.2

Task: Please look up its cell viability: O=C(c1cc(Cc2n[nH]c(=O)c3ccccc23)ccc1F)N1CCN(C(=O)C2CC2)CC1
Output: 84

Task: Any idea what cell viability was measured for Cc1ccc(C(C)C)cc2c(C)ccc1-2 [Guaiazulene] ?
Output: 102
